Test Target: hABHD12 (Homo sapiens, UniProt Q8N2K0)
Construct: expressed in transfected cells; host or cells: HEK293 (transient)
Sequence (Q8N2K0 1-398): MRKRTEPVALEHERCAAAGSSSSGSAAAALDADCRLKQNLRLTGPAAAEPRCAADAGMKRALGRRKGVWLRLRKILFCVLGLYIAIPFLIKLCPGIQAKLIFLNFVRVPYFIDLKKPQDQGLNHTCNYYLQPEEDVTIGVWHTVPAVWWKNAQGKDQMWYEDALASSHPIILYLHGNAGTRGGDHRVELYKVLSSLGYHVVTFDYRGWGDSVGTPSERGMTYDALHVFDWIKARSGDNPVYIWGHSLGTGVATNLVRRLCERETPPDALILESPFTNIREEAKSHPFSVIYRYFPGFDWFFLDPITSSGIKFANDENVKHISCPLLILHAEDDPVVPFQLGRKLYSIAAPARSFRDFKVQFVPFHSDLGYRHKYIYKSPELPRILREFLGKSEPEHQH
Assay Notes: Fluorescent glycerol assay of 1-AG hydrolysis in hABHD12-HEK293 lysates
Type: biochemical
Condition Notes: hABHD12-HEK293 lysates; read-out: max inhibition (converted)
Value Kind: Emax
Please format your answer as a value with the unit trailing.

Please review the entries below; each comes with its answer.
Compound | Test Target | Emax
C=C(C)[C@@H]1CC[C@]2(C(=O)O)CC[C@]3(C)[C@H](CC[C@@H]4[C@@]5(C)CCC(=O)NC(C)(C)[C@@H]5CC[C@]43C)[C@@H]12 | hABHD12 (Homo sapiens, UniProt Q8N2K0) | 88%
CC1(C)CC[C@]2(C(=O)O)CC[C@]3(C)C(=CC[C@@H]4[C@@]5(C)C[C@@H](O)[C@H](O)C(C)(C)[C@@H]5CC[C@]43C)[C@@H]2C1 [Compound 8, Maslinic acid, reference compound] | hABHD12 (Homo sapiens, UniProt Q8N2K0) | 89%
C=C(C)[C@@H]1CC[C@]2(C(=O)O)CC[C@]3(C)[C@H](CC[C@@H]4[C@@]5(C)CC6OC(C)(C)OC6C(C)(C)[C@@H]5CC[C@]43C)[C@@H]12 (some centres unmarked) | hABHD12 (Homo sapiens, UniProt Q8N2K0) | 90%
C=C(C)[C@@H]1CC[C@]2(C=NO)CC[C@]3(C)[C@H](CC[C@@H]4[C@@]5(C)CC[C@H](O)C(C)(C)[C@@H]5CC[C@]43C)[C@@H]12 | hABHD12 (Homo sapiens, UniProt Q8N2K0) | 61%

Please turn your attention to the following entry.
## Input Consider the compound CC(C)[C@@H]1CC[C@]2(C(=O)O)CC[C@]3(C)[C@H](CC[C@@H]4[C@@]5(C)CCC(=O)C(C)(C)[C@@H]5CC[C@]43C)[C@@H]12 and give its measured Emax.
## Output 89%

Provenance of the data: paper PMC4045134
